Target: human GPR119 (Homo sapiens)
Sequence (Q8TDV5 1-335): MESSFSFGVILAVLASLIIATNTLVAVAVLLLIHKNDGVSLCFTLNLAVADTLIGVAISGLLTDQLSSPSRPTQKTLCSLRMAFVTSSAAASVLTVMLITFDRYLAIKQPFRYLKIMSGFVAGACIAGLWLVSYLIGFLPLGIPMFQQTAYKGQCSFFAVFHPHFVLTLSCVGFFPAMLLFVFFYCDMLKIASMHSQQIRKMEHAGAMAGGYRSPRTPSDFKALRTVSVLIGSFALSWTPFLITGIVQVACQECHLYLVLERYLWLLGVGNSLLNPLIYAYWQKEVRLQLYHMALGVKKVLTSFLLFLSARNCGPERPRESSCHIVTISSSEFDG
Assay overview: cAMP assay in GPR119 transfected COS-7 cells
Test conditions: COS-7 cells expressing human GPR119, agonists 30 min; read-out: EC50, production of cAMP
Measurement kind: EC50 (nM)

In [3]: df
Out[3]:
                                   molecule                       target  observed_result
0  CCCCCCCC/C=C\CCCCCCCC(=O)NCCO [OEA, Oleoylethanolamide]  human GPR119 (Homo sapiens)              422
